# system_under_test: full length AKT E17K (Homo sapiens, UniProt P31749, E17K)
# Construct: host or cells: HEK-293 (ATCC CRL-1573)
# Sequence (P31749 whole entry E17K): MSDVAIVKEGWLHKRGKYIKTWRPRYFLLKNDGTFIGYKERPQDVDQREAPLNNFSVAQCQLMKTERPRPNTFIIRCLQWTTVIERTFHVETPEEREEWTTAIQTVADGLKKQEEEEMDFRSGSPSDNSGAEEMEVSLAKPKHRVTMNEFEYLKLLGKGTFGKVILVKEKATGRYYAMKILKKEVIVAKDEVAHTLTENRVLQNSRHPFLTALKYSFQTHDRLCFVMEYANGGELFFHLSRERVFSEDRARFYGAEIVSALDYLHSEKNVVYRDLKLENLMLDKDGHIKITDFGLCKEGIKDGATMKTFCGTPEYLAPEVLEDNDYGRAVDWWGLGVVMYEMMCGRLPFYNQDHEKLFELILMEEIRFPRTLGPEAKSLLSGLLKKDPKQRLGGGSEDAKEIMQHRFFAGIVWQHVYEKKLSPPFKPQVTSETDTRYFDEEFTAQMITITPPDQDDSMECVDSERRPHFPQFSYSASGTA
# protocol_details: NanoBRET Target Engagement (TE) Assay
# Assay type: cell-based
# condition: competitive tracer displacement in living cells, read-out: AKT1 E17K IC50
quantity_measured: IC50

>>> df
                      smiles_representation           result
0  CC(=O)Nc1cccc(-c2ccc3nc(-c4cccnc4N)n(-c4ccc(CN5CCN(c6cncc(C#N)n6)CC5)cc4)c3n2)c1          < 15 nM
1  N#Cc1cccc(NC2CCN(Cc3ccc(-n4c(-c5cccnc5N)nc5cccnc54)cc3)CC2)n1  600 to 10000 nM
2  N#Cc1ccnc(OC2CCN(Cc3ccc(-n4c(-c5cccnc5N)nc5cc(-c6ccccc6)cnc54)cc3)CC2)c1  600 to 10000 nM

What IC50 value was documented for this molecule, `N#Cc1ncnc(N2CCN(Cc3ccc(-n4c(-c5cccnc5N)nc5ccc(-c6ccccc6F)nc54)cc3)CC2)n1` ?
< 15 nM

IC50 lookup needed for `N#Cc1cc(N2CCN(Cc3ccc(-n4c(-c5cccnc5N)nc5ccc(-c6ccccc6)nc54)cc3)CC23CC3)ncn1` , thanks.
15 to 60 nM

Sample `N#Cc1cncc(N2CCN(Cc3ccc(-n4c(-c5cccnc5N)nc5cccnc54)cc3)CC2)n1` — what was its IC50?
600 to 10000 nM

For `N#Cc1cc(N2CCN(Cc3ccc(-n4c(-c5cccnc5N)nc5ccc(-c6ccccc6)nc54)cc3)CC2)ccn1` , what is its reported IC50?
15 to 60 nM
